Biological target: T1, human vascular endothelial growth factor receptor-2 Fc chimera (KDR-Fc) (human, UniProt P35968 20-764)
T1 construct: range 1-764; also called human VEGFR-2; not shown: human IgG1 Fc
T1 sequence (P35968 20-764 limits assumed, change not shown, form in doubt): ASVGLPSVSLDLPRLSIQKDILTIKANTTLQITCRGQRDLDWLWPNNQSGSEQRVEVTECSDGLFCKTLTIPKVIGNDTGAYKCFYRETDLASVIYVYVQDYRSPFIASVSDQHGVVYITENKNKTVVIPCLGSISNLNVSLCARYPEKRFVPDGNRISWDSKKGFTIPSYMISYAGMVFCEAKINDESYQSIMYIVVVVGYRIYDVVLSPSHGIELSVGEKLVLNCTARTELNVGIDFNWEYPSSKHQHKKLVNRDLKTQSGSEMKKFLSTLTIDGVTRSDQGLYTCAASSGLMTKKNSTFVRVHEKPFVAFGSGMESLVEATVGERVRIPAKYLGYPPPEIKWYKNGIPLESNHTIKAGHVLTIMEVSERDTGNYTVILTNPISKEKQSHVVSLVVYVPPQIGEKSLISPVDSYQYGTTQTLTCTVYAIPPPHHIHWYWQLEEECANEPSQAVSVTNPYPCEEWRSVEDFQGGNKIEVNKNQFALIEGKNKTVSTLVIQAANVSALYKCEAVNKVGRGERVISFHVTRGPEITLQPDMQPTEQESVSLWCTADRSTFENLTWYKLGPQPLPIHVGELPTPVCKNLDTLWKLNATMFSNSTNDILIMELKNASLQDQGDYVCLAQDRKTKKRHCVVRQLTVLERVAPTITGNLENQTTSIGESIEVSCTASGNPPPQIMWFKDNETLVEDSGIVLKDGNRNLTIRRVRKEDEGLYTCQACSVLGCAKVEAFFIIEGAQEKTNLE
Test: radioactive equilibrium binding assay, 1 nM KDR-Fc, % of input bound
Method: To prepare ³⁵S-labeled binding proteins for analysis, mRNA was prepared as described above for RNA-protein fusion production but the linker ligation step was omitted. […] 50 μA of the reaction mixture and elution were dried onto a LumaPlate-96 (Packard) and the amount of ³⁵S on the plate was measured using a TopCount NXT instrument (Packard). […] Data was analyzed using the GraphPad Prizm software (GraphPad Software, Inc, San Diego, Calif.), fitted using a one site, non-linear binding equation.
Below is a list of entries, each paired with its recorded Binding to 1 nM KDR, % value.
Express the result in % but write the number alone.

# example entries with known answers
D4 (designed binder, 10Fn3 clone, Del 1-8) EVVAATPTSLLISWRHPHFPTRYYRITYGETGGNSPVQEFTVPLQPPTATISGLKPGVDYTITGYAVTVERNGRTLFTPISINYRT; 27
EGE9 (designed binder, 10Fn3 clone, Del 1-8) EVVAATPTSLLISWRHPHFPTRYYRITYGETGGNSPVQEFTVPLQPPTATISGLKPGVDYTITGYAVTFGPNDRELLTPISINYRT; 32
B10 (designed binder, 10Fn3 clone, Del 1-8) EVVAATPTSLLISWRHPHFPTRYYRITYGETGGNSPVQEFTVPLQPPTATISGLKPGVDYTITGYAVTLERNGRELNTPISINYRT; 15
F4 (designed binder, 10Fn3 clone, Del 1-8) EVVAATPTSLLISWRHPHFPTRYYRITYGETGGNSPVQEFTVPLQPPTATISGLKPGVDYTITGYAVTVERDGRTLRTPISINYRT; 31

Okay, next one:
IN: Name the recorded Binding to 1 nM KDR, % for F3 (designed binder, 10Fn3 clone, Del 1-8) EVVAATPTSLLISWRHPHFPTRYYRITYGETGGNSPVQEFTVPLQPPTATISGLKPGVDYTITGYAVTVERDGRKLYTPISINYRT .
OUT: 27

Recorded values, source patent US20140179896A1.
